The reported measurements were obtained from paper PMC5680101.

Reported Dr fast by item:
study-target: FhuA ΔC/Δ7L_30N (Escherichia coli)
Assay type: binding, E. coli
conditions-used: rotational diffusion coefficient under desolvation conditions

Reference set, count: 3
molecule	Dr fast
C[C@H](CCC(=O)NCCC[N+](C)(C)CCCS(=O)(=O)[O-])[C@H]1CC[C@H]2[C@@H]3[C@H](O)C[C@@H]4C[C@H](O)CC[C@]4(C)[C@H]3C[C@H](O)[C@]12C [CHAPS]	~6.0 10^7 s^−1
OC[C@H]1O[C@H](O[C@H]2[C@H](O)[C@@H](O)[C@H](OCCCCC3CCCCC3)O[C@@H]2CO)[C@H](O)[C@@H](O)[C@@H]1O [CYMAL-4, 4-cyclohexyl-1-Butyl-β-D-maltoside]	5.5 ± 1.2 10^7 s^−1
CCCCCCCCO[C@@H]1O[C@H](CO)[C@@H](O)[C@H](O)[C@H]1O [OG, n-octyl-β-D-glucoside]	~6.6 10^7 s^−1

Consider now this further molecule.
*Q* Please supply the value of reported Dr fast for the item CCCCCCCCCCO[C@@H]1O[C@H](CO)[C@@H](O[C@H]2O[C@H](CO)[C@@H](O)[C@H](O)[C@H]2O)[C@H](O)[C@H]1O [DM, n-decyl-β-D-maltoside]
*A* 1.0 ± 0.1 10^7 s^−1

---

Reported rmax by item:
study-target: FhuA ΔC/Δ5L_25N (Escherichia coli, UniProt P06971)
Sequence (P06971 194-747, stated change not applied): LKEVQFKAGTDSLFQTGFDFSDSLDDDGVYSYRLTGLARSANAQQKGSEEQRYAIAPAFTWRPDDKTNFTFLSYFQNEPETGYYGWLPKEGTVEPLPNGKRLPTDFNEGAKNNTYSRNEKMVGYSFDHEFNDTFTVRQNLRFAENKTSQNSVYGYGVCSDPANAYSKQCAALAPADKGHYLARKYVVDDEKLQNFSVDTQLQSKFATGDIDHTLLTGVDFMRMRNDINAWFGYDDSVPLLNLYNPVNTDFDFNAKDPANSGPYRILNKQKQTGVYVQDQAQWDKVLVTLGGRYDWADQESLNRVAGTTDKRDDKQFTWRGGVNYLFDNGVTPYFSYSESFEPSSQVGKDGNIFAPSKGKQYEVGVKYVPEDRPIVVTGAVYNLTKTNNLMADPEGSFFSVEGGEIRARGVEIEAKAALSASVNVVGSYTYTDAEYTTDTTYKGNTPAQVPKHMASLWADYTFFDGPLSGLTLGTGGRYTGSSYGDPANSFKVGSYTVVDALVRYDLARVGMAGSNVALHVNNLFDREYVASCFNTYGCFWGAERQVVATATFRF
Assay type: binding, E. coli
conditions-used: maximum anisotropy at detergent concentrations above the CMC; 200 mM NaCl, 50 mM HEPES, pH 7.4
// print number alone

compound	rmax
CCCCCCCCCCO[C@@H]1O[C@H](CO)[C@@H](O[C@H]2O[C@H](CO)[C@@H](O)[C@H](O)[C@H]2O)[C@H](O)[C@H]1O [DM, n-decyl-β-D-maltoside]	0.343

Consider now this further compound.
*Q* Please supply the value of reported rmax for the item OC[C@H]1O[C@H](O[C@H]2[C@H](O)[C@@H](O)[C@H](OCCCCC3CCCCC3)O[C@@H]2CO)[C@H](O)[C@@H](O)[C@@H]1O [CYMAL-4, 4-cyclohexyl-1-Butyl-β-D-maltoside]
*A* 0.341

---

study-target: FhuA ΔC/Δ5L (Escherichia coli, UniProt P06971, DEL561-566/INS560[…], form not given)
Type: binding, E. coli
conditions-used: rotational diffusion coefficient under desolvation conditions
measured-property: Dr fast

compound	study-target	assay-value
CCCCCCCCCCO[C@@H]1O[C@H](CO)[C@@H](O[C@H]2O[C@H](CO)[C@@H](O)[C@H](O)[C@H]2O)[C@H](O)[C@H]1O [DM, n-decyl-β-D-maltoside]	FhuA ΔC/Δ5L (Escherichia coli, UniProt P06971, DEL561-566/INS560[…], form not given)	3.3 ± 0.2 10^7 s^−1
OC[C@H]1O[C@H](O[C@H]2[C@H](O)[C@@H](O)[C@H](OCCCCC3CCCCC3)O[C@@H]2CO)[C@H](O)[C@@H](O)[C@@H]1O [CYMAL-4, 4-cyclohexyl-1-Butyl-β-D-maltoside]	FhuA ΔC/Δ5L (Escherichia coli, UniProt P06971, DEL561-566/INS560[…], form not given)	2.6 ± 0.1 10^7 s^−1
C[C@H](CCC(=O)NCCC[N+](C)(C)CCCS(=O)(=O)[O-])[C@H]1CC[C@H]2[C@@H]3[C@H](O)C[C@@H]4C[C@H](O)CC[C@]4(C)[C@H]3C[C@H](O)[C@]12C	FhuA ΔC/Δ5L (Escherichia coli, UniProt P06971, DEL561-566/INS560[…], form not given)	1.5 ± 0.1 10^7 s^−1

Consider now this further compound.
*Q* Please supply the value of reported Dr fast for the item CCCCCCCCO[C@@H]1O[C@H](CO)[C@@H](O)[C@H](O)[C@H]1O [OG, n-octyl-β-D-glucoside]
*A* 5.8 ± 0.1 10^7 s^−1

---

Reported rmin by item:
study-target: FhuA ΔC/Δ5L_25N (Escherichia coli, UniProt P06971)
Type: binding, E. coli
conditions-used: minimum anisotropy, extrapolated for the lowest detergent concentration; 200 mM NaCl, 50 mM HEPES, pH 7.4
// print number alone

molecule	rmin
CCCCCCCCCCO[C@@H]1O[C@H](CO)[C@@H](O[C@H]2O[C@H](CO)[C@@H](O)[C@H](O)[C@H]2O)[C@H](O)[C@H]1O [DM, n-decyl-β-D-maltoside]	0.166

*Q* Report measured rmin on FhuA ΔC/Δ5L_25N (Escherichia coli, UniProt P06971); entry: OC[C@H]1O[C@H](O[C@H]2[C@H](O)[C@@H](O)[C@H](OCCCCC3CCCCC3)O[C@@H]2CO)[C@H](O)[C@@H](O)[C@@H]1O [CYMAL-4, 4-cyclohexyl-1-Butyl-β-D-maltoside]
*A* 0.166

---

study-target: FhuA ΔC/Δ5L (Escherichia coli, UniProt P06971, DEL561-566/INS560[…], form not given)
Assay type: binding, E. coli
conditions-used: minimum anisotropy, extrapolated for the lowest detergent concentration; 200 mM NaCl, 50 mM HEPES, pH 7.4
measured-property: rmin
// print number alone

compound	assay-value
CCCCCCCCCCO[C@@H]1O[C@H](CO)[C@@H](O[C@H]2O[C@H](CO)[C@@H](O)[C@H](O)[C@H]2O)[C@H](O)[C@H]1O [DM, n-decyl-β-D-maltoside]	0.219

*Q* Report measured rmin on FhuA ΔC/Δ5L (Escherichia coli, UniProt P06971, DEL561-566/INS560[…], form not given); entry: CCCCCCCCO[C@@H]1O[C@H](CO)[C@@H](O)[C@H](O)[C@H]1O [OG, n-octyl-β-D-glucoside]
*A* 0.162

*Q* Report measured rmin on FhuA ΔC/Δ5L (Escherichia coli, UniProt P06971, DEL561-566/INS560[…], form not given); entry: C[C@H](CCC(=O)NCCC[N+](C)(C)CCCS(=O)(=O)[O-])[C@H]1CC[C@H]2[C@@H]3[C@H](O)C[C@@H]4C[C@H](O)CC[C@]4(C)[C@H]3C[C@H](O)[C@]12C
*A* 0.172

*Q* Report measured rmin on FhuA ΔC/Δ5L (Escherichia coli, UniProt P06971, DEL561-566/INS560[…], form not given); entry: OC[C@H]1O[C@H](O[C@H]2[C@H](O)[C@@H](O)[C@H](OCCCCC3CCCCC3)O[C@@H]2CO)[C@H](O)[C@@H](O)[C@@H]1O [CYMAL-4, 4-cyclohexyl-1-Butyl-β-D-maltoside]
*A* 0.242

---

study-target: FhuA ΔC/Δ5L_25N (Escherichia coli)
Assay type: binding, E. coli
conditions-used: rotational diffusion coefficient under solvation conditions
Reported Dr slow by item:

compound	study-target	measured-property	assay-value
CCCCCCCCO[C@@H]1O[C@H](CO)[C@@H](O)[C@H](O)[C@H]1O [OG, n-octyl-β-D-glucoside]	FhuA ΔC/Δ5L_25N (Escherichia coli)	Dr slow	~5.2 10^7 s^−1
C[C@H](CCC(=O)NCCC[N+](C)(C)CCCS(=O)(=O)[O-])[C@H]1CC[C@H]2[C@@H]3[C@H](O)C[C@@H]4C[C@H](O)CC[C@]4(C)[C@H]3C[C@H](O)[C@]12C [CHAPS]	FhuA ΔC/Δ5L_25N (Escherichia coli)	Dr slow	~5.2 10^7 s^−1
CCCCCCCCCCO[C@@H]1O[C@H](CO)[C@@H](O[C@H]2O[C@H](CO)[C@@H](O)[C@H](O)[C@H]2O)[C@H](O)[C@H]1O [DM, n-decyl-β-D-maltoside]	FhuA ΔC/Δ5L_25N (Escherichia coli)	Dr slow	0.66 ± 0.03 10^7 s^−1

Consider now this further compound.
*Q* Please supply the value of reported Dr slow for the item OC[C@H]1O[C@H](O[C@H]2[C@H](O)[C@@H](O)[C@H](OCCCCC3CCCCC3)O[C@@H]2CO)[C@H](O)[C@@H](O)[C@@H]1O [CYMAL-4, 4-cyclohexyl-1-Butyl-β-D-maltoside]
*A* 0.69 ± 0.01 10^7 s^−1

---

Reported Dr slow by item:
study-target: FhuA ΔC/Δ7L_30N (Escherichia coli, UniProt P06971)
Sequence (P06971 194-747, stated change not applied): as above
Assay type: binding, E. coli
conditions-used: rotational diffusion coefficient under solvation conditions

Reference set, count: 3
compound	study-target	Dr slow
CCCCCCCCO[C@@H]1O[C@H](CO)[C@@H](O)[C@H](O)[C@H]1O [OG, n-octyl-β-D-glucoside]	FhuA ΔC/Δ7L_30N (Escherichia coli, UniProt P06971)	~5.2 10^7 s^−1
C[C@H](CCC(=O)NCCC[N+](C)(C)CCCS(=O)(=O)[O-])[C@H]1CC[C@H]2[C@@H]3[C@H](O)C[C@@H]4C[C@H](O)CC[C@]4(C)[C@H]3C[C@H](O)[C@]12C	FhuA ΔC/Δ7L_30N (Escherichia coli, UniProt P06971)	~5.2 10^7 s^−1
OC[C@H]1O[C@H](O[C@H]2[C@H](O)[C@@H](O)[C@H](OCCCCC3CCCCC3)O[C@@H]2CO)[C@H](O)[C@@H](O)[C@@H]1O [CYMAL-4, 4-cyclohexyl-1-Butyl-β-D-maltoside]	FhuA ΔC/Δ7L_30N (Escherichia coli, UniProt P06971)	0.63 ± 0.05 10^7 s^−1

Consider now this further compound.
*Q* Please supply the value of reported Dr slow for the item CCCCCCCCCCO[C@@H]1O[C@H](CO)[C@@H](O[C@H]2O[C@H](CO)[C@@H](O)[C@H](O)[C@H]2O)[C@H](O)[C@H]1O [DM, n-decyl-β-D-maltoside]
*A* 5.5 ± 0.4 10^7 s^−1
